Source of measurements: patent US20210032312A1

Target desc: T1, human CD8 alpha (CD8A) on primary human CD8+ T cells (human, UniProt P01732 22-235)
T1 construct: whole, on cells; also called hCD8A
T1 sequence (P01732 22-235): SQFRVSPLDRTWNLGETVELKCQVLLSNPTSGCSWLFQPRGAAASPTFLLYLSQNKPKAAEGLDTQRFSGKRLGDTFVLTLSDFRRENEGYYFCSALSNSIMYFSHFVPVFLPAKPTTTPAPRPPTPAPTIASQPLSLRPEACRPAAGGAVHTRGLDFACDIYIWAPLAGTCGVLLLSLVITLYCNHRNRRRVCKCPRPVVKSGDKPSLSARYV
Experiment description: flow cytometry, human CD8+ T cells
Protocol: Binding of the 190 ELISA hits to human and cynomologous monkey primary CD8 T cells was assessed by flow cytometry. The FN3 domain molecules were diluted to 2 μM and 0.2 μM in PBS and incubated with human or cynomologous monkey CD8+ T cells in 96-well format. […] Cells were gating on live cells and median fluorescence intensity of the bound Centyrins (PE channel) was calculated using Cytobank software.
Please map values of Human T-cell Binding 0.2 uM (MFI) to classes as shown: interval 1: < 600 MFI; interval 2: ≥ 600 MFI and < 4000 MFI; interval 3: ≥ 4000 MFI

Q: Band assignment needed for P283BR9P1363_G5 (designed binder, FN3 domain) LPAPKNLVVSRVTEDSARLSWYRATTPAPHFDSFLIQYQESEKVGEAIVLTVPGSERSYDLTGLKPGTEYTVSIYGVDVKWEGNRPVASNPLSAIFTT please.
Result: interval 2

Q: Tag the class for P283HR7P1368_G1 (designed binder, FN3 domain) LPAPKNLVVSRVTEDSARLSWTAPDAAFDSFLITYWEIEPEGEAIFLGVPGSERSYDLTGLKPGTEYRVQINGVKGGTISYPLFAGFTT
Result: interval 3

Q: # bin lookup: classify P283HR7P1368_F10 (designed binder, FN3 domain) LPAPKNLVVSRVTEDSARLSWTAPDAAFDSFYIPYRESEFRGEAIALPVPGSERSYDLTGLKPGTKYRVIIIGVKGGEFSQPLGAIFTT by its Human T-cell Binding 0.2 uM (MFI)
Result: interval 2

Q: Each binder maps to one class by Human T-cell Binding 0.2 uM (MFI). Which class for P283DR9P1364_D8 (designed binder, FN3 domain) LPAPKNLVVSRVTEDSARLSWTAPDAAFDSFQIAYPETPIQGEAIVLTVPGSERSYDLTGLKPGTEYFVIIHGVKGGITSFPLSAIFTT ?
Result: interval 1

Q: Which Human T-cell Binding 0.2 uM (MFI) category applies to P283DR9P1364_F2 (designed binder, FN3 domain) LPAPKNLVVSRVTEDSARLSWTAPDAAFDSFWIAYPEWPVPGEAIVLTVPGSERSYDLTGLKPGTEYFVIIQGVKGGFGSFPLSAIFTT here?
Result: interval 3

Q: The entry to classify is P283DR9P1364_C10 (designed binder, FN3 domain) LPAPKNLVVSRVTEDSARLSWTAPDAAFDSFQIAYPEWPKDGEAIVLTVPGSERSYDLTGLKPGTEYAVFIWGVKGGVYSNPLSAIFTT ; which class holds it?
Result: interval 2

Q: Assign a category based on measured Human T-cell Binding 0.2 uM (MFI) for P283FR9P1366_D8 (designed binder, FN3 domain) LPAPKNLVVSRVTEDSARLSWTAPDAAFDSFEIAYPEIPIAGEAIVLTVPGSERSYDLTGLKPGTEYFVIIYGVKGGDWSDPLSAIFTT and give only the class name.
Result: interval 1

Q: Band for the recorded Human T-cell Binding 0.2 uM (MFI) of P283FR9P1366_H8 (designed binder, FN3 domain) LPAPKNLVVSRVTEDSARLSWTAPDAAFDSFYISYPEWPGSGEAIVLTVPGSERSYDLTGLKPGTEYAVFIWCVKGGWLSDPLSAIFTT ?
Result: interval 3

Q: Categorize the following entry: P283DR9P1364_D11 (designed binder, FN3 domain) LPAPKNLVVSRVTEDSARLSWTAPDAAFDSFDIAYPEWPPKGEAIVLTVPGSERSYDLTGLKPGTEYFVVIYGVKGGIHSAPLSAIFTT
Result: interval 3

Q: Tag the class for P283FR9P1366_H6 (designed binder, FN3 domain) LPAPKNLVVSRVTEDSARLSWTAPDAAFDSFDIAYPEWPVTGEAIVLTVPGSERSYDLTGLKPGTEYWVIIFGVKGGERSWPLSAIFTT
Result: interval 3

More entries:
Q: Lab note: sort P283DR9P1364_B1 (designed binder, FN3 domain) LPAPKNLVVSRVTEDSARLSWTAPDAAFDSFYITYPEIPLGGEAIVLTVPGSERSYDLTGLKPGTEYFVVIYGVKGGLLSSPLSAIFTT into the matching Human T-cell Binding 0.2 uM (MFI) band.
Result: interval 2

Q: Category lookup for the binder P283ER9P1365_G1 (designed binder, FN3 domain) LPAPKNLVVSRVTEDSARLSWTAPDAAFDSFYIPYRESEFRGEAIALSVPGSERSYDLTGLKPGTKYRVIIIGVKGGEFSQPLGAIFTT
Result: interval 1

Q: Dear colleague, I would appreciate it if you could identify the bin for P283HR7P1368_G11 (designed binder, FN3 domain) LPAPKNLVVSRVTEDSARLSWTAPDAAFDSFGIGYAEPAVTGEAISLSVPGSERSYDLTGLKPGTEYWVVIIGVKGGINSYPLGASFTT and reply at your convenience.
Result: interval 2

Q: Exam item: assign P283DR9P1364_D9 (designed binder, FN3 domain) LPAPKNLVVSRVTEDSARLSWTAPDAAFDSFGISYPEWPPLGEAIVLTVPGSERSYDLTGLKPGTEYWVIIFGVKGGERSWPLSAIFTT to the correct category.
Result: interval 3

Q: Kindly identify the class of P283FR9P1366_C4 (designed binder, FN3 domain) LPAPKNLVVSRVTEDSARLSWTAPDAAFDSFNIAYPEWPVRGEAIVLTVPGSERSYDLTGLKPGTEYWVIIIGVKGGEDSWPLSAIFTT .
Result: interval 2

Q: GET /class?item= P283FR9P1366_F8 (designed binder, FN3 domain) LPAPKNLVVSRVTEDSARLSWTAPDAAFDSFAIAYPEIAKWGEAIVLTVPGSERSYDLTGLKPGTEYFVIIYGVKGGVHSFPLSAIFTT
Result: interval 1

Q: Which class holds P283FR9P1366_H3 (designed binder, FN3 domain) LPAPKNLVVSRVTEDSARLSWTAPDAAFDSFAIAYPEWPIKGEAIVLTVPGSERSYDLTGLKPGTEYWVVIYGVKGGVFSEPLSAIFTT ?
Result: interval 2

Q: Band for P283FR9P1366_D12 (designed binder, FN3 domain) LPAPKNLVVSRVTEDSARLSWTAPDAAFDSFDIAYPEWPLGGEAIVLTVPGSERSYDLTGLKPGTEYWVIILGVKGGDQSWPLSAIFTT ?
Result: interval 2
